Biological target: human AMPK (full-length γ1, β1 and α1 subunits) (Homo sapiens (Human), UniProt Q13131+Q9Y478)
Sequence (Q13131 whole entry): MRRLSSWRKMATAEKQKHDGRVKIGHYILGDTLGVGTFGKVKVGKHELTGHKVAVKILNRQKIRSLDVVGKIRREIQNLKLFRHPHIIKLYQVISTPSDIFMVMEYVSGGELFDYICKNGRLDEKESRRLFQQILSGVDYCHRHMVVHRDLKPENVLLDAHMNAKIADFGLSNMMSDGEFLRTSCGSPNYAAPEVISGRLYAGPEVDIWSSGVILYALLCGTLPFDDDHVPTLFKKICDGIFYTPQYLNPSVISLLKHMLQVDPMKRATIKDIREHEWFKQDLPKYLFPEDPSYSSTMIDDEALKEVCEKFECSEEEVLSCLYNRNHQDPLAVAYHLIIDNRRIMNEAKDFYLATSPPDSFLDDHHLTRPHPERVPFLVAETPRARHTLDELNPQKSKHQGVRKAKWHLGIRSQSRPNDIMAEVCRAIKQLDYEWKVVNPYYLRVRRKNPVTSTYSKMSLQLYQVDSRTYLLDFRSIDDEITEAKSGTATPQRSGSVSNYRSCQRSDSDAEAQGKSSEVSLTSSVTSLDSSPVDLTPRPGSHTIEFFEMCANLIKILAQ
Sequence (Q9Y478 whole entry): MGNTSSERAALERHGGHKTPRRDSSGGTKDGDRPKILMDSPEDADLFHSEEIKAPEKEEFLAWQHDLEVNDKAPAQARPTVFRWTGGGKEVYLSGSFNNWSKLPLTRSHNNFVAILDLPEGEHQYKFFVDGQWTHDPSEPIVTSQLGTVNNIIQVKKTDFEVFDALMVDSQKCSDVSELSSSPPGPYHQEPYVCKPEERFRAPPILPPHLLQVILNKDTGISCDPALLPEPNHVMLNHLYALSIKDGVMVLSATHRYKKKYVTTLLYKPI
Sequence (P54619 whole entry partner): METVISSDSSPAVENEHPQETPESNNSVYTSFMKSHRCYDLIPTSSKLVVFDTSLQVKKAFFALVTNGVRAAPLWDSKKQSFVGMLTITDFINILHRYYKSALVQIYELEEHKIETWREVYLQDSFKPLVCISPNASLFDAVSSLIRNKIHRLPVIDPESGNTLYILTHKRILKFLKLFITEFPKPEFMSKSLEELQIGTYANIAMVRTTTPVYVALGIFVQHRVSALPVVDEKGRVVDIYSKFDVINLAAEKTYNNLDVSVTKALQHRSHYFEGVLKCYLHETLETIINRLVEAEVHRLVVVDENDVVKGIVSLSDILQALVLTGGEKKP
Assay: AMPK in vitro biochemical assay (33P-based, SAMS peptide, PP2A dephosphorylation)
Details: activation of phosphorylated AMPK; 33P-ATP, SAMS peptide, PP2A treatment; 4-parameter fit
pEC50: −log10 of the molar value.
measured metric: pEC50

(1) CC(C)Oc1ccc(-c2cc3c(C(=O)O)n[nH]c3cc2Cl)cc1 [Example 100]
(2) O=C(O)c1c[nH]c2cc(Cl)c(-c3ccc(C4(O)CCC4)cc3F)cc12 [Example 13]
Which entry shows the lesser value of pEC50 here, 1 or 2 ? # reply format: chosen label 1

(1) COC(=O)N1CCC(c2ccc(-c3cc4c(C(=O)O)c[nH]c4cc3Cl)cc2)C1 (single isomer, unassigned) [Example 14B]
(2) O=C(O)c1c[nH]c2cc(Cl)c(-c3ccc(OCCCO)cc3)cc12 [Example 30]
(3) O=C(O)c1c[nH]c2cc(F)c(-c3ccc(CO)cc3)cc12 [Example 7]
(4) CS(=O)(=O)N1CCCC1c1ccc(-c2cc3c(C(=O)O)c[nH]c3cc2Cl)cc1 (centres unmarked) [Example 84]
(5) O=C(O)c1c[nH]c2cc(Cl)c(-c3ccc(OCc4cccnc4)cc3)cc12 [Example 94]
# desc sort on pEC50 across 5 compounds Submit the labels in the order that the ranking request calls for. 5, 2, 1, 4, 3
(5: 7.75, 2: 7.52, 1: 6.93, 4: 6.46, 3: 6.17)

(1) COC(C)c1ccc(-c2cc3c(C(=O)O)n[nH]c3cc2Cl)cc1 (centres unmarked) [Example 125]
(2) O=C(O)c1c[nH]c2cc(Cl)c(-c3ccc(-c4ccccc4)cc3)cc12 [Example 43]
pEC50 comparison. Which is larger, 1 or 2 ? Reply with the label of the item you choose. 2

(1) NC(=O)COc1ccc(-c2cc3c(C(=O)O)c[nH]c3cc2Cl)cc1 [Example 70]
(2) COc1ccc(-c2cc3c(C(=O)O)c[nH]c3cc2C#N)cc1 [Example 32]
Determine, for 1 and 2 , which has the greater value of pEC50. Kindly give the label for the entry you pick. 1

(P) COC[C@H](C)Oc1ccc(-c2cc3c(C(=O)O)c[nH]c3cc2Cl)cc1 [Example 159]
(Q) CC(C)c1ccc(-c2cc3c(C(=O)O)c[nH]c3cc2Cl)cc1 [Example 162]
Which numeric pEC50 is bigger, that of P or that of Q ? // return label of chosen record P
(P: 7.32, Q: 6.72)

----------
Molecular target: human AMPK (full-length γ1, β1 and α1 subunits) (Homo sapiens (Human), UniProt Q13131+Q9Y478)
Test: AMPK in vitro biochemical assay (33P-based, SAMS peptide, PP2A dephosphorylation)
Conditions: activation of phosphorylated AMPK; 33P-ATP, SAMS peptide, PP2A treatment; 4-parameter fit
measured metric: EC50 (nM)

molecule	EC50 / nM
O=C(O)c1c[nH]c2cc(Cl)c(-c3ccc(OCCCN4CC[C@@H](F)C4)cc3)cc12 [Example 189]	57.7

(P) O=C(O)c1n[nH]c2cc(Cl)c(-c3ccc(N4CCOCC4)cc3)cc12 [Example 128]
(Q) CS(=O)(=O)N1CCC(c2ccc(-c3cc4c(C(=O)O)c[nH]c4cc3Cl)cc2)C1 (stereo not shown) [Example 16]
(R) O=C(O)c1c[nH]c2cc(Cl)c(-c3cnc(N4CCOCC4)nc3)cc12 [Example 76]
# sort list by recorded EC50, greatest to least // rank by listing labels in the order requested Q, R, P
(Q: 412 nM, R: 271 nM, P: 19.8 nM)

Origin of measurements: patent US9394285B2
